Kindly find below pIC50 information for Interstitial collagenase (Homo sapiens) taken from the literature.
pIC50: −log10 of the molar value.

molecule=COCCOC(=O)N1CCN(S(=O)(=O)c2cc(F)c(Oc3ccccc3)c(F)c2)[C@@H](C(=O)NO)C1 val="4.70 to 6.00"
molecule="O=C(CC(CCn1nnc2ccccc2c1=O)C(=O)O)c1coc2cc(OCC3CCCC3)ccc12 (single isomer, unassigned; (+))" val="< 4.40"
molecule=O=C(NO)[C@H]1CN(C(=O)N2CCOCC2)CCN1S(=O)(=O)c1cc(F)c(Oc2ccc(F)cc2)c(F)c1 val="4.70 to 6.00"
molecule=O=C(NO)[C@H]1CN(S(=O)(=O)CCN2CCOCC2)CCN1S(=O)(=O)c1cc(F)c(Oc2ccc(Cl)cc2)c(F)c1 val="< 4.70"
molecule="O=C(CC(CCn1nnc2ccccc2c1=O)C(=O)O)c1cc2ccc(OCCc3ccccc3)cc2o1 (racemic)" val="< 4.40"

Measured pIC50 of CCCCN1CC(C(=O)O)N(S(=O)(=O)c2ccc(-c3ccc(Br)cc3)cc2)CC1=O (centres unmarked) : 6.94

Measured pIC50 of O=C(NO)[C@H]1CN(S(=O)(=O)NC(=O)N2CCOCC2)CCN1S(=O)(=O)c1cc(F)c(Oc2ccc(Cl)cc2)c(F)c1 : 4.70 to 6.00

Measured pIC50 of CC#CCOc1ccc(C(=O)NC[C@@H](C(=O)NO)N2CCN(S(C)(=O)=O)CC2)cc1 : < 5.00

----------
Kindly find below pIC50 information for Interstitial collagenase (Homo sapiens, UniProt P03956) taken from the literature.
pIC50: −log10 of the molar value.

compound="O=C(CC(CCn1nnc2ccccc2c1=O)C(=O)O)c1cc2cc(OCc3ccc(F)cc3)ccc2o1 (single isomer, unassigned; (+))" val="< 4.40"
compound="O=C(O)c1cccc(CN([C@]2(C(=O)O)C[C@H]2c2cccc(OCCO)c2)S(=O)(=O)c2ccc(-c3ccc(Cl)cc3)cc2)c1 (relative stereo)" val="≤ 5.00"
compound="O=C(O)c1csc(CN([C@]2(C(=O)O)C[C@H]2c2ccccc2)S(=O)(=O)c2ccc(-c3ccc(Cl)cc3)cc2)n1 (relative stereo)" val="≤ 5.00"
compound=COCCOC(=O)N1CCN(S(=O)(=O)c2ccc(Oc3ccc(F)cc3)cc2)[C@@H](C(=O)NO)C1 val="> 7.30"
compound=CNC(=O)CN1CCN(S(=O)(=O)c2cc(F)c(Oc3ccc(Cl)cc3)c(F)c2)[C@@H](C(=O)NO)C1 val="< 4.70"
compound="NC(=O)CN(C1(C(=O)O)C[C@H]1c1ccccc1)S(=O)(=O)c1ccc(-c2ccc(Cl)cc2)cc1 (stereo in doubt)" val="≤ 5.00"
compound=COc1ccc(CCNC(=O)[C@H](CCC(=O)O)NC(=O)c2ccc(-c3ccccc3)cc2)cc1 val="< 4.00"
compound="CC1(C)[C@H](C(=O)NO)N(S(=O)(=O)c2ccc(OCc3ccc(F)cc3)cc2)CC[S+]1[O-] (some centres unmarked)" val=6.46
compound=O=C(O)CC[C@H](NC(=O)c1ccc(-c2ccccc2)cc1)C(=O)NCc1ccc2c(c1)OCO2 val="< 4.00"
compound="O=C(O)CN([C@]1(C(=O)O)C[C@H]1c1ccc(Cl)cc1)S(=O)(=O)c1ccc(-c2ccc(Cl)cc2)cc1 (relative stereo)" val="≤ 5.00"

Measured pIC50 of O=C(O)CN([C@]1(C(=O)O)C[C@H]1c1cccc(OC2CCCCC2)c1)S(=O)(=O)c1ccc(-c2ccc(Cl)cc2)cc1 (relative stereo) : ≤ 5.00

----------
pIC50: −log10 of the molar value.
Kindly find below pIC50 information for Interstitial collagenase (Homo sapiens) taken from the literature.

Measured pIC50 of C[C@@H]1O[C@@H](CO)CN(S(=O)(=O)c2ccc(OCc3ccc(F)cc3)cc2)[C@H]1C(=O)NO : 5.85

Measured pIC50 of O=C(O)[C@@H]1[C@@H](Cn2nnc3ccccc3c2=O)CC[C@H]1C(=O)c1ccc(OCCC2CCOCC2)cc1 (single isomer, unassigned) : < 4.40

Measured pIC50 of CN1CCN(CC(=O)N2CCN(S(=O)(=O)c3cc(F)c(Oc4ccc(Cl)cc4)c(F)c3)[C@@H](C(=O)NO)C2)CC1 : < 4.70
